A compilation of published Ki results with Neurotensin receptor type 1 (Homo sapiens).
Sequence (P30989 whole entry): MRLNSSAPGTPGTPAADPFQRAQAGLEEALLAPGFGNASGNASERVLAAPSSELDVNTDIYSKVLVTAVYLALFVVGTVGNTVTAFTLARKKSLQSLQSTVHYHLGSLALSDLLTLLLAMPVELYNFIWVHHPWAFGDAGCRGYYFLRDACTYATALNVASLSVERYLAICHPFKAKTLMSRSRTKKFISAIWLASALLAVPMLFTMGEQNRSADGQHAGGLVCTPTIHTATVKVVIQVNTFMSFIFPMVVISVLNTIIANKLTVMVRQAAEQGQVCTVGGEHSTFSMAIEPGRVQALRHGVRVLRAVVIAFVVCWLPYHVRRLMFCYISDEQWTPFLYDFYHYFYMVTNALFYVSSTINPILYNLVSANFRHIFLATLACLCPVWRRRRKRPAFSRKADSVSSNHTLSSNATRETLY
Quick reminder: number only, in µM, skip the unit.

compound | unit abbrev | val
CC(C)C[C@H](NC(=O)C1(NC(=O)[C@@H]2CCCN2C(=O)[C@H](CCCNC(=N)N)NC(=O)[C@@H](N)CCCCN)CCOC1c1ccc(Br)cc1)C(=O)O (stereo in doubt; 8-2) | µM | 92.3

For the record CC(C)C[C@H](NC(=O)C1(NC(=O)[C@@H]2CCCN2C(=O)[C@H](CCCCN)NC(=O)[C@@H](N)CCCCN)CCOC1c1ccc(Br)cc1)C(=O)O (stereo in doubt; 7-2) , what value of Ki is listed for Neurotensin receptor type 1 (Homo sapiens)? 95.5

For the record CC(C)C[C@H](NC(=O)C1(NC(=O)[C@@H]2CCCN2C(=O)[C@H](CCCCN)NC(=O)[C@@H](N)CCCNC(=N)N)CCOC1c1ccc(Br)cc1)C(=O)O (stereo in doubt; 9-1) , what value of Ki is listed for Neurotensin receptor type 1 (Homo sapiens)? 70.5

For the record CC[C@H](C)[C@H](NC(=O)[C@H](Cc1ccc(O)cc1)NC(=O)[C@@H]1CCCN1C(=O)[C@H](CCCNC(=N)N)NC(=O)[C@@H](N)CCCNC(=N)N)C(=O)NC1(C(=O)O)C2CC3CC(C2)CC1C3 (some centres not stated) , what value of Ki is listed for Neurotensin receptor type 1 (Homo sapiens)? 0.0024

For the record COc1cccc(OC)c1-c1cc(C(=O)NC2(C(=O)O)C3CC4CC(C3)CC2C4)nn1-c1ccc(C(=O)N(C)CCCN(C)C)cc1C(C)C (configuration not stated) , what value of Ki is listed for Neurotensin receptor type 1 (Homo sapiens)? 0.001

For the record COc1cccc(OC)c1-c1cc(C(=O)NC2(C(=O)O)C3CC4CC(C3)CC2C4)nn1-c1ccc(C(=O)N(C)CCCN(C)CCCCc2cn([C@@H]3O[C@H](CO)[C@@H](O)[C@H](O)[C@H]3F)nn2)cc1C(C)C (some centres not stated) , what value of Ki is listed for Neurotensin receptor type 1 (Homo sapiens)? 0.00098
